From: PubChem BioAssay (NCI)

# System: SF-295 CNS
# assay text: NCI-60 one-dose screen, 48 h (100 = growth as untreated, 0 = no growth, -100 = all killed)
# condition details: 10 µM
# Experimental: Cells are grown in 96 well plates and exposed to the test compound for 48 hours. Compounds are tested at a single concentration, which is 10^-5 M for most compounds. The reported endpoint is percent growth (GI% or GIPRCNT), where numbers from 0 - 100% represent growth inhibition, and numbers from -100% - 0 represent cell death. For example, a value of 40 represents 60% growth inhibition. A value of 0 means no net growth occurred over the course of the experiment. […]
This is part of a sample that, as a whole, favours compounds with a hit. Of some 83,000 tested, about 20% had one in any assay. Calls of active or inactive are those of the source. The calls were made as follows: active = growth percent below 10; inactive = the rest.
The entries below come with measured growth values attached.

compound: CCOC(=O)CN(c1sc(C)c(C)c1C(=O)OCC)S(=O)(=O)c1ccc(C)cc1
growth: 103% (inactive)

compound: COCCn1cc(-c2nc(-c3cccnc3)cs2)c2cc(F)ccc21
growth: 95.6% (inactive)

compound: COc1ccc(Cl)cc1Nc1nc(C(F)(F)F)ccc1C(=O)N/N=C/c1cc(OC)c(OC)c(OC)c1
growth: 19.8% (inactive)

compound: CC(C)(C)OC(=O)CC(S(=O)(=O)c1ccccc1)S(=O)(=O)c1ccccc1
growth: 110% (inactive)

compound: CCOC(=O)c1sc2ncnc(Nc3ccc(NC(=O)Nc4ccc(Cl)cc4)cc3)c2c1C
growth: 33.1% (inactive)

compound: CS(=O)(=O)c1nccc(-c2c(-c3cccc(OCc4ccc(F)cc4)c3)nc3sccn23)n1
growth: 105% (inactive)

compound: Cc1c(Cl)cccc1NC(=O)CCCl
growth: 106% (inactive)

compound: CC(C)(C)c1ccc(S(=O)(=O)N[C@H]2CC[C@H]3[C@@H]4CCc5cc(OS(=O)(=O)O)ccc5[C@H]4CC[C@]23C)cc1
growth: 44.7% (inactive)

compound: CC(=O)N[C@H](C(=O)N[C@@H](CCCNC(=N)N)C(=O)N[C@@H](CCCCN)C(=O)N[C@@H](CCCNC(=N)N)C(=O)N[C@]1(C)CCCCCC/C=C\CCC[C@@](C)(C(=O)N[C@@H](CCCNC(=N)N)C(=O)N[C@@H](CCC(=O)O)C(=O)N[C@@H](CC(C)C)C(=O)N[C@H](C(=O)N[C@@H](CCC(=O)O)C(N)=O)C(C)C)NC(=O)[C@H](CCC(N)=O)NC(=O)[C@H](CC(C)C)NC(=O)[C@H](CC(C)C)NC(=O)[C@H](CCCNC(=N)N)NC(=O)[C@H](CCCNC(=N)N)NC(=O)[C@H](CC(C)C)NC1=O)C(C)C
growth: 14.3% (inactive)

compound: O=C1/C=C/[C@@H](O)[C@@H]2C[C@@H](O)C[C@H]2/C=C/CCC[C@H](CCc2ccc(NC(=S)Nc3ccc4c(c3)C(=O)OC43c4ccc(O)cc4Oc4cc(O)ccc43)cc2)O1
growth: 22.2% (inactive)

compound: C#CC(C)(O)[C@@H]1C[C@H](CC(=O)O)C1(C)C (stereo not given in full)
growth: 103% (inactive)

compound: O=C1c2c(c(=O)[nH]c3ccccc23)CCN1Cc1ccccc1
growth: 104% (inactive)

compound: CN(C)CCOc1cccc(NC2=C(Cl)C(=O)C(Nc3cccc(OCCN(C)C)c3)=C(Cl)C2=O)c1
growth: 66.5% (inactive)

compound: COc1ccc(-c2nn(-c3cccc(Cl)c3)cc2-c2cc(-c3ccccc3)[nH]c(=O)c2C#N)cc1
growth: -36% (active)

compound: Nc1nc(-c2cccnc2)nc2c1sc(=S)n2-c1ccccc1
growth: 111% (inactive)
